These measurements were taken from the supplement of paper PMC10567573.

B1: ZER1 (parent)
chain: FDGPEAWGVCEPQREEVEERMWAA

variants of: B1; assay: protein stability index of a GFP-peptide fusion (GPS, HEK-293T) (PSI 1-6); higher = more stable; conditions: c terminus: a fixed tail appended;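 note: lentivirally expressed fusions sorted by FACS into six bins by GFP to DsRed ratio, PSI derived from sequencing read proportions per bin multiplied by bin number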

| SEQ_TEXT | protein stability index |
| --- | --- |
| QDGPEAWGVCEPQREEVEERMWAA [F1Q] | 4.88 |
| FDGPEAWGVCEPQREEVEHRMWAA [E19H] | 1.91 |
| FDGPEAWGVCEPQRSEVEERMWAA [E15S] | 2.13 |
| FDGPEAWGVCEPQREEVPERMWAA [E18P] | 2.69 |
| FDGPEAWGVCESQREEVEERMWAA [P12S] | 3.14 |
| FDGPEAMGVCEPQREEVEERMWAA [W7M] | 3.64 |
| FDGPEAWGVCEPQREEDEERMWAA [V17D] | 2.61 |
| FDGPEAWGVCEPQREEVEERMDAA [W22D] | 3.75 |
| FDGPEAWGTCEPQREEVEERMWAA [V9T] | 3.15 |
| FRGPEAWGVCEPQREEVEERMWAA [D2R] | 1.8 |
| FDGPEAWGVCEPQNEEVEERMWAA [R14N] | 2.86 |
| FDGPEAWGVCEPQREEVEEPMWAA [R20P] | 2.92 |
| FDGIEAWGVCEPQREEVEERMWAA [P4I] | 3.23 |
| FDGPEAWGQCEPQREEVEERMWAA [V9Q] | 3.05 |
| FDGPEAWGVCEPQREEVEENMWAA [R20N] | 2.75 |
| FDGPEAWGVCEPQREEVEERMWKA [A23K] | 2.77 |
| FDPPEAWGVCEPQREEVEERMWAA [G3P] | 4.42 |
| YDGPEAWGVCEPQREEVEERMWAA [F1Y] | 3.15 |
| FDGPEAWGVCEPQRFEVEERMWAA [E15F] | 1.56 |
| FDGPEAWGVCEPQREEVTERMWAA [E18T] | 2.62 |
| FDGPEAWGVCEPQHEEVEERMWAA [R14H] | 2.31 |
| FDGPEAWGVHEPQREEVEERMWAA [C10H] | 3.64 |
| FDGPEAWGVCEPQREEQEERMWAA [V17Q] | 2.55 |
| FDGPEAWGVCKPQREEVEERMWAA [E11K] | 2.12 |
| FDGSEAWGVCEPQREEVEERMWAA [P4S] | 3.29 |
| FDGPEAWGVCEPQREEVEERMYAA [W22Y] | 3.73 |
| FDGPEAWGVCEPQREEVEERMVAA [W22V] | 3.44 |
| LDGPEAWGVCEPQREEVEERMWAA [F1L] | 3.93 |
| FDGPEAWGVCEPQREEVEERQWAA [M21Q] | 2.89 |
| FDGPEAWGVCEPQREEVEERMWAR [A24R] | 2.76 |
| FDGPEAWGVCSPQREEVEERMWAA [E11S] | 2.73 |
| FDGPEAWGVCEPQREEVEERMGAA [W22G] | 2.81 |
| FDSPEAWGVCEPQREEVEERMWAA [G3S] | 1.96 |
| FWGPEAWGVCEPQREEVEERMWAA [D2W] | 3.21 |
| FDGPEAWGVCEPQREEVEERMWYA [A23Y] | 2.04 |
| FDGPEAWSVCEPQREEVEERMWAA [G8S] | 1.95 |
| FDGPEAWGVCEPQREEVEERFWAA [M21F] | 2.24 |
| FDGPEAWGVCEPQREEVEERMSAA [W22S] | 3.25 |
| FDGPEAWGVCEPQREEVEEFMWAA [R20F] | 2.65 |
| FDGPEAWGVCEPQREEVEERMWAD [A24D] | 2.88 |
| PDGPEAWGVCEPQREEVEERMWAA [F1P] | 5.04 |
| FDGPEAWGVCEPQRECVEERMWAA [E16C] | 2.24 |
| FDGPEAWGVCEPQREYVEERMWAA [E16Y] | 2.11 |
| FDNPEAWGVCEPQREEVEERMWAA [G3N] | 2.58 |
| FDGPEAWGVCEPQRTEVEERMWAA [E15T] | 2.62 |
| FDGPEAWGVCEGQREEVEERMWAA [P12G] | 2.69 |
